biological target: 5-HT2c (Homo sapiens, UniProt P28335); assay: Selectivity binding 5-HT2c; settings: figure in parentheses after the bound; read-out: 5-HT2c Selectivity Binding (Ki), value in parentheses
measured attribute: Ki (nM)

COc1ccc(C)cc1NS(=O)(=O)c1cc(OC2CCNCC2)c2occc2c1 2300

###

target: UniProtKB P28223; test: Selectivity binding 5-HT2a; details: figure in parentheses after the bound; read-out: 5-HT2a Selectivity Binding (Ki), value in parentheses
Sequence (P28223 whole entry, species assumed): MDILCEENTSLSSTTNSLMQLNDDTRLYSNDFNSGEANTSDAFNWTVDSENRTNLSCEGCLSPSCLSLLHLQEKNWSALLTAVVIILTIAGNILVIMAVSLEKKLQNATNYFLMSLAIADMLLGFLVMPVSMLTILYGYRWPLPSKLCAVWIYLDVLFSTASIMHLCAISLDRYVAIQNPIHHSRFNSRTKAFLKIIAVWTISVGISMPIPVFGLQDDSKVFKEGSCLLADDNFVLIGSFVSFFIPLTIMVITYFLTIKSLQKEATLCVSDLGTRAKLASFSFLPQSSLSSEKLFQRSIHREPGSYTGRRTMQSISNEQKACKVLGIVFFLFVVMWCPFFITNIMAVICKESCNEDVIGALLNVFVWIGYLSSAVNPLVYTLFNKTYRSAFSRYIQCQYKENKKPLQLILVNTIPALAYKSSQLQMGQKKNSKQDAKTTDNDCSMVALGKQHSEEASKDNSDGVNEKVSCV
measured attribute: Ki

compound	result
COc1ccc(C)cc1NS(=O)(=O)c1cc(OC2CCNCC2)c2occc2c1 [Example 1]	5.6 µM

###

Recorded pKi, one value per entry.
molecular target: UniProt P28223; assay: Selectivity binding 5-HT2a; conditions: read-out: 5-HT2a Selectivity Binding (Ki)
pKi: −log10 of the molar value.

compound	pKi
O=S(=O)(Nc1cc(OC2CCNCC2)c2occc2c1)c1ccccc1C(F)(F)F	< 6.00
Cl.O=S(=O)(Nc1cc(OC2CCNCC2)c2occc2c1)c1ccc(Cl)s1 [Compound A, hydrochloride]	< 6.00
COc1ccc(C)cc1NS(=O)(=O)c1cc(OC2CCNCC2)c2occc2c1	< 6.00

###

In this section, each of the compounds is paired with its reported Ki.
Target: UniProt:P28335
Sequence (P28335 33-458): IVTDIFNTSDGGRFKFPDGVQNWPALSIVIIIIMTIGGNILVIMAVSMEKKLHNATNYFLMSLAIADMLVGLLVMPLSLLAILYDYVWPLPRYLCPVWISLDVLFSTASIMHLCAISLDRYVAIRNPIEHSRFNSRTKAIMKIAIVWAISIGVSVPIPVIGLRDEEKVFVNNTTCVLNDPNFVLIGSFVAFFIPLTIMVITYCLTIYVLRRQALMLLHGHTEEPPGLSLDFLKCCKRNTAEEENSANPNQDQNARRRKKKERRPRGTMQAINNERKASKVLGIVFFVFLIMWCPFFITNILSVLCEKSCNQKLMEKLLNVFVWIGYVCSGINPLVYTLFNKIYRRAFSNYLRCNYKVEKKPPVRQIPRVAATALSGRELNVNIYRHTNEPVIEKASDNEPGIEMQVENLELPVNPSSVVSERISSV
Test: Selectivity binding 5-HT2c
Conditions: read-out: 5-HT2c Selectivity Binding (Ki)

compound	Ki
O=S(=O)(Nc1cc(OC2CCNCC2)c2occc2c1)c1ccccc1C(F)(F)F	> 1000 nM
Cl.O=S(=O)(Nc1cc(OC2CCNCC2)c2occc2c1)c1ccc(Cl)s1 [Compound A, hydrochloride]	> 1000 nM
COc1ccc(C)cc1NS(=O)(=O)c1cc(OC2CCNCC2)c2occc2c1	> 1000 nM
